# Method: Metabolic stability in human liver microsomes
# Assay type: in vitro ADME
# Measurement parameters: Human liver microsomes 0.5 mg protein/mL; 2 μM
Ends that are not written are not given here.
Experimental readout: CLint scaled (mL/min/kg)
Respond with the bare value in mL/min/kg.

Notebook: LRKLRKRLLRLVGRQLEEFL [HM-10/10, LRKLRKRLLRLVGRQLEEFL] , CLint scaled read as 61.5

----------
# Method: Metabolic stability in cryopreserved Sprague-Dawley rat hepatocytes
# Format: in vitro ADME
# Measurement parameters: rat, hepatocytes, Sprague-Dawley rat hepatocytes 0.5 million cells/mL; 2 μM; read-out: CLint (L/hr/kg) (converted)
Ends that are not written are not given here.
Experimental readout: CLint scaled (L/h/kg)
Write the number in L/h/kg without appending the unit.

CLint scaled for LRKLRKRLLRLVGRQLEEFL [HM-10/10, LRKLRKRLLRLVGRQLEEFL] is 75.4
